system: human FXR (NR1H4) (Homo sapiens, UniProt Q96RI1)
Sequence (Q96RI1 whole entry, the tested form may be a part): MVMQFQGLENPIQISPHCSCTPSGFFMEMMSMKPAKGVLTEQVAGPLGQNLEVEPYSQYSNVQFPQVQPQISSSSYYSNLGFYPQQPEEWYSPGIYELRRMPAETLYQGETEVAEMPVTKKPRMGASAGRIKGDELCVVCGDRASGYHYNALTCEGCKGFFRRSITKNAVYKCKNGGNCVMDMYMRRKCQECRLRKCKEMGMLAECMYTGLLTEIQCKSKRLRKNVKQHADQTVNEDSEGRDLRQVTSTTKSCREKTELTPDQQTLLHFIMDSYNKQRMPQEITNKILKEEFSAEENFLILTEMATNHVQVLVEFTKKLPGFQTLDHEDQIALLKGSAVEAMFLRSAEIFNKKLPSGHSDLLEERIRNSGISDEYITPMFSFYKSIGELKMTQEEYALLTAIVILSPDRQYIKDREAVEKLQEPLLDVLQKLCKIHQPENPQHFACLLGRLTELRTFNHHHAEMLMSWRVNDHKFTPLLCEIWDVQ
method_description: Human FXR (NR1H4) Assay: Gal4 promoter driven luciferase reporter transactivation in CHO cells (Indigo Bioscience kit IB00601)
Format: cell-based
experimental_context: potency range, Human FXR (NR1H4) reporter assay in CHO cells; read-out: EC50
// values below are reported EC50

The following molecules have reported results that may help.
O=C(c1ccc(-c2cccc(NC(=O)N3C4CCC3CC(OCc3c(-c5c(Cl)cccc5Cl)noc3C3CC3)C4)c2)cc1)N1CCOCC1 (stereo not shown) : 10 to 100 nM
Cn1cc(-c2cc(NC(=O)N3C4CCC3CC(OCc3c(-c5c(Cl)cccc5Cl)noc3C3CC3)C4)ccc2C(=O)O)cn1 (stereo not shown) : 100 to 1000 nM

Enquiry: Quick check: EC50 of COC(=O)c1ccc(F)c(NC(=O)N2C3CCC2CC(OCc2c(-c4ccccc4OC(F)(F)F)noc2C2CC2)C3)c1 (stereo not shown) ?
Return: 100 to 1000 nM

Enquiry: Field entry: O=C(O)c1ccc(NC(=O)N2C3CCC2CC(OCc2c(-c4c(Cl)cccc4Cl)noc2C2CC2)C3)cc1-c1cncnc1 (stereo not shown)
Return: 10 to 100 nM

Enquiry: Same for COC(=O)c1ccc(NC(=O)N2C3CCC2CC(OCc2c(-c4ccccc4OC(F)(F)F)noc2C2CC2)C3)cc1OC(F)(F)F (stereo not shown)
Return: 10 to 100 nM

Enquiry: Now the molecule O=C(Nc1cc(F)cc(C(F)(F)F)c1)N1C2CCC1CC(OCc1c(-c3c(Cl)cccc3Cl)noc1C1CC1)C2 (stereo not shown)
Return: < 10 nM

Enquiry: For O=C(Nc1cccc(C2=CCCCC2)c1)N1C2CCC1CC(OCc1c(-c3c(Cl)cccc3Cl)noc1C1CC1)C2 (stereo not shown) then?
Return: < 10 nM

Enquiry: Query O=C(O)c1ccc(NC(=O)N2C3CCC2CC(OCc2c(-c4c(Cl)cccc4Cl)noc2C2CC2)C3)c(F)c1-c1ccccc1 (stereo not shown) next
Return: 10 to 100 nM

Enquiry: Likewise for CN1CCC(c2cccc(NC(=O)N3C4CCC3CC(OCc3c(-c5c(Cl)cccc5Cl)noc3C3CC3)C4)c2)CC1 (stereo not shown) ?
Return: 10 to 100 nM

Enquiry: Same read-out for CCOC(=O)c1ccc(NC(=O)N2C3CCC2CC(NCc2c(-c4c(Cl)cccc4Cl)noc2C2CC2)C3)c(OCC)c1 (stereo not shown) ?
Return: 10 to 100 nM

Enquiry: And then CCOC(=O)c1cnc2ccc(NC(=O)N3C4CCC3CC(OCc3c(-c5c(Cl)cccc5Cl)noc3C3CC3)C4)cc2c1 (stereo not shown) , what is it?
Return: < 10 nM

Enquiry: Also need CC(C)(C)c1ccc(C(=O)NC(=O)N2C3CCC2CC(OCc2c(-c4c(Cl)cccc4Cl)noc2C2CC2)C3)cc1 (stereo not shown) , thanks.
Return: 10 to 100 nM

Enquiry: Record: CCOC(=O)c1ccc2c(c1)CCCN2C(=O)N1C2CCC1CC(OCc1c(-c3ccccc3OC(F)(F)F)noc1C1CC1)C2 (stereo not shown)
Return: > 1000 nM

Enquiry: Thanks! And O=C(O)c1cccc(F)c1NC(=O)N1C2CCC1CC(OCc1c(-c3ccccc3OC(F)(F)F)noc1C1CC1)C2 (stereo not shown) ?
Return: > 1000 nM

Enquiry: One more molecule: O=C(O)c1cccnc1NC(=O)N1C2CCC1CC(OCc1c(-c3ccccc3OC(F)(F)F)noc1C1CC1)C2 (stereo not shown)
Return: > 1000 nM

Enquiry: Lookup O=C(NS(=O)(=O)c1ccccc1)c1ccc(NC(=O)N2C3CCC2CC(OCc2c(-c4ccccc4OC(F)(F)F)noc2C2CC2)C3)cc1 (stereo not shown)
Return: 100 to 1000 nM
